Growth controlling degree (%) Prickly sida by entry:
test system: prickly sida; experiment: Test Example 1: foliage treatment, upland pot test; assay type: in vivo, Sida spinosa L.; settings: active ingredient 500 g/ha, observed 18th to 23rd day, 0 = non-treated, 100 = complete kill
property_name: Growth controlling degree (%) Prickly sida

compound	experimental_system	test_result
COc1ccc(CC(=O)N(C)C(c2cnccc2C(F)(F)F)C(C)C)cc1 (stereo not shown)	prickly sida	70
CC(C)C(c1cnccc1C(F)(F)F)N(C)C(=O)Cc1ccc(C(F)(F)F)cc1 (stereo not shown)	prickly sida	80
CC(C)C(c1cnccc1C(F)(F)F)N(C)C(=O)Cc1cccs1 (stereo not shown)	prickly sida	70
CC(C)C(c1cnccc1C(F)(F)F)N(C)C(=O)Cc1ccc(C(F)(F)F)c(F)c1 (stereo not shown)	prickly sida	70

* * *

system: japanese bulrush; assay: Test Example 3: paddy pot test, application under submerged conditions; assay type: in vivo, Scirpus juncoides; conditions: active ingredient 250 g/ha; submerged application at 0.5 leaf stage; visually observed 14 days after application; 0 = non-treated, 100 = complete kill
property_name: Growth controlling degree (%) Japanese bulrush

compound	unit_abbreviation	test_result
CC(C)=CC(=O)N(C)C(c1cnccc1C(F)(F)F)C(C)C (centres unmarked)	%	98
COc1ccccc1CC(=O)N(C)C(c1cnccc1C(F)(F)F)C(C)C (centres unmarked)	%	95
CC(C)C(c1cnccc1C(F)(F)F)N(C)C(=O)C=C1CCCCC1 (centres unmarked)	%	98
CC(C)C(c1cnccc1C(F)(F)F)N(C)C(=O)COc1ccccc1Cl (centres unmarked)	%	90
CC(C)C(c1cnccc1C(F)(F)F)N(C)C(=O)Cc1cccc(Br)c1 (centres unmarked)	%	90
CC(=Cc1ccccc1)C(=O)N(C)C(c1cnccc1C(F)(F)F)C(C)C (centres unmarked)	%	98
CC(C)C(c1cnccc1C(F)(F)F)N(C)C(=O)C=COc1ccccc1 (centres unmarked)	%	95
CC(Oc1ccc(Br)cc1)C(=O)N(C)C(c1cnccc1C(F)(F)F)C(C)C (mixture of isomers)	%	80
Cc1ccccc1CC(=O)N(C)C(c1cnccc1Cl)C(C)C (centres unmarked)	%	98
CC(C)C(c1cnccc1C(F)(F)F)N(C)S(=O)(=O)c1ccc(Br)cc1 (racemic)	%	70
CC(C)C(Br)C(=O)N(C)C(c1cnccc1C(F)(F)F)C(C)C (centres unmarked)	%	98

* * *

system: japanese bulrush; assay: Test Example 3: paddy pot test, application under submerged conditions; type: in vivo, Scirpus juncoides; conditions: active ingredient 250 g/ha; submerged application at 0.5 leaf stage; visually observed 14 days after application; 0 = non-treated, 100 = complete kill
Growth controlling degree (%) Japanese bulrush by entry:
property_name: Growth controlling degree (%) Japanese bulrush

compound	experimental_system	unit_abbreviation	test_result
CC(C)C(c1cnccc1C(F)(F)F)N(C)C(=O)COc1ccc(Cl)cc1Cl (stereo not drawn)	japanese bulrush	%	80
CC(C)C(c1cnccc1C(F)(F)F)N(C)C(=O)Cc1c(F)cccc1Cl (stereo not drawn)	japanese bulrush	%	85
CC(C)C(c1cnccc1C(F)(F)F)N(C)C(=O)Cc1cc(F)cc(C(F)(F)F)c1 (stereo not drawn)	japanese bulrush	%	80
CC(C)C(c1cnccc1C(F)(F)F)N(C)C(=O)C=Cc1cccs1 (stereo not drawn)	japanese bulrush	%	95
CC(C)C(c1cnccc1C(F)(F)F)N(C)C(=O)C=Cc1ccc(F)cc1 (stereo not drawn)	japanese bulrush	%	98
CC(=O)N(C)C(c1cnccc1C(F)(F)F)C(C)C (stereo not drawn)	japanese bulrush	%	98
CC(C)C(c1cnccc1C(F)(F)F)N(C)C(=O)Cc1ccccc1Br (stereo not drawn)	japanese bulrush	%	95
CC(C)C(c1cnccc1C(F)(F)F)N(C)C(=O)COc1cc(F)ccc1F (stereo not drawn)	japanese bulrush	%	95
CC(C)C(c1cnccc1C(F)(F)F)N(C)S(=O)(=O)c1ccc(Cl)cc1 (racemic)	japanese bulrush	%	70
CCN(C(=O)Cc1ccc(F)cc1)C(c1cnccc1C(F)(F)F)C(C)C (stereo not drawn)	japanese bulrush	%	98
Cc1cccc(CC(=O)N(C)C(c2cnccc2Cl)C(C)C)c1 (stereo not drawn)	japanese bulrush	%	70
CCN(C(=O)Cc1ccccc1)C(c1cnccc1Cl)C(C)C (stereo not drawn)	japanese bulrush	%	100
CCN(C(=O)Cc1ccc(C(F)(F)F)cc1)C(c1cnccc1C(F)(F)F)C(C)C (stereo not drawn)	japanese bulrush	%	70
CC(C)C(c1cnccc1C(F)(F)F)N(C)C(=O)CCc1ccccc1 (stereo not drawn)	japanese bulrush	%	50
Cc1ccc(F)c(CC(=O)N(C)C(c2cnccc2C(F)(F)F)C(C)C)c1 (stereo not drawn)	japanese bulrush	%	100
CC(C)C(c1cnccc1C(F)(F)F)N(C)C(=O)COc1ccc(F)cc1F (stereo not drawn)	japanese bulrush	%	98
Cc1ccc(CC(=O)N(C)C(c2cnccc2C(F)(F)F)C(C)C)cc1 (stereo not drawn)	japanese bulrush	%	98
COc1ccc(OCC(=O)N(C)C(c2cnccc2C(F)(F)F)C(C)C)cc1 (stereo not drawn)	japanese bulrush	%	95
CC(C)C(c1cnccc1C(F)(F)F)N(C)C(=O)Cc1ccc(C(F)(F)F)c(F)c1 (stereo not drawn)	japanese bulrush	%	30
CC(Oc1ccc(F)cc1F)C(=O)N(C)C(c1cnccc1C(F)(F)F)C(C)C (mixture of isomers)	japanese bulrush	%	100
CC(C)C(c1cnccc1C(F)(F)F)N(C)C(=O)C=Cc1ccc(Cl)cc1 (stereo not drawn)	japanese bulrush	%	98
CC(C)C(c1cnccc1Cl)N(C)C(=O)Cc1ccc(Cl)cc1 (stereo not drawn)	japanese bulrush	%	98
CCC(C)C(c1cnccc1C(F)(F)F)N(C)C(=O)COc1ccccc1 (stereo not drawn)	japanese bulrush	%	95
Cc1ccccc1CC(=O)N(C)C(c1cnccc1C(F)(F)F)C(C)C (stereo not drawn)	japanese bulrush	%	95
C=CCCC(=O)N(C)C(c1cnccc1C(F)(F)F)C(C)C (stereo not drawn)	japanese bulrush	%	98
CC(C)C(c1cnccc1Cl)N(C)C(=O)Cc1c(F)ccc(F)c1F (stereo not drawn)	japanese bulrush	%	95
CC(C)C(c1cnccc1C(F)(F)F)N(C)C(=O)COc1c(F)c(F)c(F)c(F)c1F (stereo not drawn)	japanese bulrush	%	98
Cc1cc(Cl)ccc1OCC(=O)N(C)C(c1cnccc1C(F)(F)F)C(C)C (stereo not drawn)	japanese bulrush	%	90
CC(C)C(c1cnccc1Cl)N(C)C(=O)COc1ccccc1 (stereo not drawn)	japanese bulrush	%	98
CC(C)C(c1cnccc1C(F)(F)F)N(C)C(=O)Cc1ccc(F)c(C(F)(F)F)c1 (stereo not drawn)	japanese bulrush	%	0
CC(C)C(c1cnccc1C(F)(F)F)N(C)C(=O)COc1ccc(Cl)cc1 (stereo not drawn)	japanese bulrush	%	98
CC(C)C(c1cnccc1C(F)(F)F)N(C)C(=O)C1CCCC1 (stereo not drawn)	japanese bulrush	%	98
COc1ccc(CC(=O)N(C)C(c2cnccc2C(F)(F)F)C(C)C)cc1 (stereo not drawn)	japanese bulrush	%	70

* * *

Growth controlling degree (%) Prickly sida by entry:
test system: prickly sida; assay: Test Example 2: soil surface treatment, upland pot test; type: in vivo, Sida spinosa L.; conditions: active ingredient 250 g/ha, observed 20th to 28th day
property_name: Growth controlling degree (%) Prickly sida

molecule	unit_abbreviation	test_result
CCCCC(=O)N(C)C(c1cnccc1C(F)(F)F)C(C)C (centres unmarked)	%	80
CC(=O)N(C)C(c1cnccc1C(F)(F)F)C(C)C (centres unmarked)	%	80
CCC(Br)C(=O)N(C)C(c1cnccc1C(F)(F)F)C(C)C (centres unmarked)	%	70
CC(=Cc1ccccc1)C(=O)N(C)C(c1cnccc1C(F)(F)F)C(C)C (centres unmarked)	%	50
CCCOC(=O)N(C)C(c1cnccc1C(F)(F)F)C(C)C (centres unmarked)	%	60
CC(C)C(c1cnccc1C(F)(F)F)N(C)C(=O)CCBr (centres unmarked)	%	60
Cc1ccc(S(=O)(=O)N(C)C(c2cnccc2C(F)(F)F)C(C)C)cc1 (racemic)	%	50
CC(C)C(c1cnccc1C(F)(F)F)N(C)S(=O)(=O)c1ccc(Br)cc1 (racemic)	%	50

* * *

tested on: japanese bulrush; assay: Test Example 3: paddy pot test, application under submerged conditions; assay type: in vivo, Scirpus juncoides; details: active ingredient 250 g/ha; submerged application at 0.5 leaf stage; visually observed 14 days after application; 0 = non-treated, 100 = complete kill
Class rule met: Growth controlling degree (%) Japanese bulrush at least 90%. Class rule not met: Growth controlling degree (%) Japanese bulrush below 90%.

compound	label
CCN(C(=O)Cc1ccc(C)cc1)C(c1cnccc1C(F)(F)F)C(C)C (centres unmarked) [I-101]	rule met
CC(C)C(c1cnccc1C(F)(F)F)N(C)C(=O)Cc1ccsc1 (centres unmarked) [I-170]	rule met
CC(C)C(c1cnccc1C(F)(F)F)N(C)C(=O)C1CC1 (centres unmarked) [Compound I-204]	rule met
CC(C)C(c1cnccc1C(F)(F)F)N(C)C(=O)C=C1CCCC1 (centres unmarked) [I-176]	rule met
CC(Oc1ccc(Cl)cc1)C(=O)N(C)C(c1cnccc1C(F)(F)F)C(C)C (mixture of isomers) [I-139]	rule met
CC(C)C(c1cnccc1C(F)(F)F)N(C)S(=O)(=O)c1ccccc1 (centres unmarked) [I-117]	rule met
CC(C)C(c1cnccc1C(F)(F)F)N(C)C(=O)C(F)(F)F (centres unmarked) [Compound I-209]	rule met
CCN(C(=O)Cc1cccc(C(F)(F)F)c1)C(c1cnccc1C(F)(F)F)C(C)C (centres unmarked) [I-75]	rule not met
CCCCC(=O)N(C)C(c1cnccc1C(F)(F)F)C(C)C (centres unmarked) [I-199]	rule met
CC(C)C(c1cnccc1C(F)(F)F)N(C)C(=O)Cc1cccc(C(F)(F)F)c1F (centres unmarked) [I-29]	rule not met
CC(C)C(c1cnccc1C(F)(F)F)N(C)C(=O)SCc1ccccc1 (racemic) [I-113]	rule not met
CC(C)C(c1cnccc1C(F)(F)F)N(C)S(=O)(=O)c1ccc(C(F)(F)F)cc1 (centres unmarked) [I-146]	rule not met
CC(C)C(c1cnccc1C(F)(F)F)N(C)C(=O)CCBr (centres unmarked) [I-201]	rule met
CC(C)C(c1cnccc1C(F)(F)F)N(C)C(=O)C(F)=Cc1ccccc1 (centres unmarked) [Compound I-207]	rule met
CC(Sc1ccccc1)C(=O)N(C)C(c1cnccc1C(F)(F)F)C(C)C (mixture of isomers) [I-140]	rule met
CCN(C(=O)Cc1ccccc1F)C(c1cnccc1C(F)(F)F)C(C)C (centres unmarked) [I-78]	rule not met
CC(C)C(c1cnccc1C(F)(F)F)N(C)S(=O)(=O)C=Cc1ccc(Cl)cc1 (centres unmarked) [I-142]	rule not met
CC(C)C(c1cnccc1C(F)(F)F)N(C)C(=O)Cc1ccc(Cl)c(Cl)c1 (centres unmarked) [I-28]	rule not met
CCC(C)C(c1cnccc1C(F)(F)F)N(C)C(=O)Cc1ccccc1 (centres unmarked) [I-260]	rule met
CCN(C(=O)Cc1cc(F)ccc1F)C(c1cnccc1C(F)(F)F)C(C)C (centres unmarked) [I-98]	rule not met
CCN(C(=O)Cc1cccc(C(F)(F)F)c1F)C(c1cnccc1C(F)(F)F)C(C)C (centres unmarked) [I-76]	rule met
Cc1ccccc1OCC(=O)N(C)C(c1cnccc1C(F)(F)F)C(C)C (centres unmarked) [I-240]	rule met
COCC(=O)N(C)C(c1cnccc1C(F)(F)F)C(C)C (centres unmarked) [I-195]	rule met
